The reported numbers originate from patent US20260207563A1.

- ASSAYED_SYSTEM: heteromeric KV7.2/KV7.3 channels (KCNQ2, KCNQ3) (Homo sapiens, UniProt O43525+O43526)
- Construct: expressed in transfected cells; host or cells: CHO-K1
- ASSAY_INFO: Automated patch-clamp (Sophion Qube 384) potency assay against KV7.2/KV7.3 channels
- Type: cell-based
- TEST_PARAMETERS: CHO-K1/Kv7.2/Kv7.3 cells; maximal shift in the Vhalf from the top of the curve
TEST_READOUT: Kv7.2/7.3 ΔV1/2 (mV)
Report as a plain number; the unit mV is understood.

{"COMPOUND": "C[C@@H](Oc1cc(CNC(=O)N[C@@H]2COc3ccccc32)ncn1)C(F)(F)F [Compound 207]", "U": "mV", "Kv7.2/7.3 ΔV1/2": 23.90}
{"COMPOUND": "O=C(NCc1ccnc(OCC(F)(F)F)c1)N[C@@H]1CCO[C@@H](c2ccccc2)C1 [Compound 195]", "U": "mV", "Kv7.2/7.3 ΔV1/2": 39.68}
{"COMPOUND": "O=C(N[C@@H](CO)c1ccnc(OCC(F)(F)F)c1)N[C@H]1CCc2ccc(F)cc21 [Compound 99]", "U": "mV", "Kv7.2/7.3 ΔV1/2": 29.92}
{"COMPOUND": "O=C(NCc1ccnc(OCC(F)(F)F)c1)N[C@H]1CC[C@@H](c2ccccc2F)C1 [Compound 198]", "U": "mV", "Kv7.2/7.3 ΔV1/2": 76.04}

Now for the compound whose Kv7.2/7.3 ΔV1/2 we want.
Query: Kv7.2/7.3 ΔV1/2; subject: O=C(NCc1ccnc(OCC(F)(F)F)c1)N[C@@H]1CCc2sccc21 [Compound 172] 55.13

----------
# Lookup of reported Kv7.2/7.3 ΔV1/2 keyed by entry
- ASSAYED_SYSTEM: heteromeric KV7.2/KV7.3 channels (KCNQ2, KCNQ3) (Homo sapiens, UniProt O43525+O43526)
- Construct: expressed in transfected cells; host or cells: CHO-K1
- ASSAY_INFO: Automated patch-clamp (Sophion Qube 384) potency assay against KV7.2/KV7.3 channels
- Format: cell-based
- TEST_PARAMETERS: CHO-K1/Kv7.2/Kv7.3 cells; maximal shift in the Vhalf from the top of the curve
Answer shape: numeric part, then the unit.

{"COMPOUND": "O=C(NCc1ccnc(C(F)(F)F)c1)N[C@H]1CCc2ccc(F)cc21 [Compound 94]", "Kv7.2/7.3 ΔV1/2": "13.23 mV"}
{"COMPOUND": "O=C(NCc1ccnc(OCC(F)(F)F)c1)NCC1CCCc2ccccc21 (stereo not shown) [Compound 141]", "Kv7.2/7.3 ΔV1/2": "17.59 mV"}
{"COMPOUND": "O=C(NCc1ccnc(OCC(F)(F)F)c1)NC1CCc2ccc(F)cc21 (racemic) [Compound 81]", "Kv7.2/7.3 ΔV1/2": "14.75 mV"}
{"COMPOUND": "O=C(NCc1ccnc(OCC(F)(F)F)n1)N[C@@H]1CCc2ccccc21 [Compound 171]", "Kv7.2/7.3 ΔV1/2": "48.06 mV"}
{"COMPOUND": "O=C(NCc1ccnc(OCC(F)(F)F)c1)N[C@@H]1CCc2ccccc2C1 [Compound 115]", "Kv7.2/7.3 ΔV1/2": "21.89 mV"}

Query: Kv7.2/7.3 ΔV1/2; subject: O=C(NCc1ccnc(OCC(F)(F)F)c1)N[C@@H]1CCOc2c(F)cccc21 [Compound 179] 33.61 mV

Query: Kv7.2/7.3 ΔV1/2; subject: Cc1cccc2c1OCC[C@@H]2NC(=O)NCc1ccnc(OCC(F)(F)F)c1 [Compound 185] 22.68 mV

Query: Kv7.2/7.3 ΔV1/2; subject: O=C(NCc1ccnc(OCC(F)(F)F)c1)NC1CCc2c(F)cc(F)cc21 (stereo not shown) [Compound 135] 22.58 mV

Query: Kv7.2/7.3 ΔV1/2; subject: O=C(NCc1ccnc(OCC(F)(F)F)c1)N[C@@H]1COC[C@H]1Oc1ccccc1F [Compound 243] 26.56 mV

Query: Kv7.2/7.3 ΔV1/2; subject: CC1(C)C[C@H](NC(=O)NCc2ccnc(OCC(F)(F)F)c2)c2ccccc21 [Compound 193] 23.15 mV

Query: Kv7.2/7.3 ΔV1/2; subject: COc1cc2c(cc1F)CC[C@H]2NC(=O)NCc1ccnc(OCC(F)(F)F)c1 [Compound 164] 25.3 mV

Query: Kv7.2/7.3 ΔV1/2; subject: O=C(NCc1ccnc(OCC(F)(F)F)c1)N[C@@H]1C[C@@H]2CC[C@H]1O2 [Compound 237] 29.76 mV

Query: Kv7.2/7.3 ΔV1/2; subject: C[C@@H](Oc1cc(CNC(=O)NCCC2(C(F)(F)F)CC2)ncn1)C(F)(F)F [Compound 91] 37.24 mV

Query: Kv7.2/7.3 ΔV1/2; subject: C[C@@H](Oc1cc(CNC(=O)N[C@@H]2COc3ccccc3C2)ncn1)C(F)(F)F [Compound 221] 35.15 mV

Query: Kv7.2/7.3 ΔV1/2; subject: O=C(NCCC1(C(F)(F)F)CC1)NCc1ccnc(OCc2ncco2)c1 [Compound 13] 22.29 mV

Query: Kv7.2/7.3 ΔV1/2; subject: O=C(NCc1ccnc(OCC(F)(F)F)c1)N[C@@H]1CCOc2cc(F)ccc21 [Compound 204] 38.78 mV

Query: Kv7.2/7.3 ΔV1/2; subject: C[C@@H](Oc1cc(CNC(=O)N[C@@H](C2CC2)C(F)(F)F)ncn1)C(F)(F)F [Compound 223] 41.12 mV

Query: Kv7.2/7.3 ΔV1/2; subject: O=C(NCc1ccnc(OCC(F)(F)F)c1)N[C@@H]1CCCC[C@@H]1O [Compound 62] 16.94 mV

Query: Kv7.2/7.3 ΔV1/2; subject: Cc1ccc2c(c1)[C@H](NC(=O)NCc1ccnc(OCC(F)(F)F)c1)CC2 [Compound 126] 42.02 mV

Query: Kv7.2/7.3 ΔV1/2; subject: O=C(NCc1ccnc(OCC(F)(F)F)c1)NC1CCc2sccc21 (stereo not shown) [Compound 144] 23.26 mV

Query: Kv7.2/7.3 ΔV1/2; subject: O=C(NCC1CCCCC1)N[C@@H](CO)c1ccnc(OCC(F)(F)F)c1 [Compound 103] 42.63 mV

Query: Kv7.2/7.3 ΔV1/2; subject: O=C(NCCC1(C(F)(F)F)CC1)NCc1ccnc(OCC2(F)CC2)c1 [Compound 22] 27.07 mV

Query: Kv7.2/7.3 ΔV1/2; subject: O=C(NCCC1(C(F)(F)F)CC1)NCc1ccnc(OCc2ccccc2)c1 [Compound 3] 25.42 mV

Query: Kv7.2/7.3 ΔV1/2; subject: C[C@H](NC(=O)NC[C@H](O)C(C)(C)C)c1ccnc(OCC(F)(F)C(F)(F)F)c1 [Compound 105] 35.29 mV

Query: Kv7.2/7.3 ΔV1/2; subject: COc1ccc2c(c1)[C@@H](NC(=O)NCc1ccnc(OCC(F)(F)F)c1)CC2 [Compound 128] 15.68 mV

Query: Kv7.2/7.3 ΔV1/2; subject: CC(C)(C)[C@@H](O)CNC(=O)NCc1ccnc(OCCC(F)(F)F)c1 [Compound 78] 19.21 mV

Query: Kv7.2/7.3 ΔV1/2; subject: C[C@@H](NC(=O)NCc1ccnc(OCC(F)(F)F)c1)c1cccc2c1OC(F)(F)O2 [Compound 227] 31.71 mV

Query: Kv7.2/7.3 ΔV1/2; subject: O=C(NCc1ccnc(OCC(F)(F)F)c1)NC1CCC(F)(F)CC1 [Compound 71] 55.93 mV

Query: Kv7.2/7.3 ΔV1/2; subject: COc1ccc([C@H](CF)NC(=O)NCc2ccnc(OCC(F)(F)F)c2)cc1 [Compound 215] 24.17 mV

----------
# Lookup of reported Kv7.2/7.3 ΔV1/2 keyed by entry
- ASSAYED_SYSTEM: heteromeric KV7.2/KV7.3 channels (KCNQ2, KCNQ3) (Homo sapiens, UniProt O43525+O43526)
- Construct: expressed in transfected cells; host or cells: CHO-K1
- ASSAY_INFO: Automated patch-clamp (Sophion Qube 384) potency assay against KV7.2/KV7.3 channels
- Format: cell-based
- TEST_PARAMETERS: CHO-K1/Kv7.2/Kv7.3 cells; maximal shift in the Vhalf from the top of the curve
Answer shape: numeric part, then the unit.

For orientation, consider the following solved cases.
{"COMPOUND": "O=C(NCCC1(C(F)(F)F)CC1)NCc1ccc(OCC(F)(F)F)nc1", "RESULT": "28.15 mV"}
{"COMPOUND": "COc1ccc2c(c1)C[C@H](NC(=O)NCc1ccnc(OCC(F)(F)F)c1)CC2", "RESULT": "20.58 mV"}
{"COMPOUND": "C[C@H](Oc1nccc(CNC(=O)NCCC2(C(F)(F)F)CC2)n1)C(F)(F)F", "RESULT": "22.14 mV"}
{"COMPOUND": "O=C(NCc1ccnc(OCC(F)(F)F)c1)N[C@@H]1COc2ccc(F)cc21", "RESULT": "28.4 mV"}
{"COMPOUND": "Cc1ccc2c(c1)CCC2NC(=O)NCc1ccnc(OCC(F)(F)F)c1 (centres unmarked)", "RESULT": "14.07 mV"}

Query: Kv7.2/7.3 ΔV1/2; subject: O=C(NCc1ccnc(OCC(F)(F)F)c1)N[C@@H]1CCSc2ccccc21 47.65 mV

Query: Kv7.2/7.3 ΔV1/2; subject: O=C(NCCC1(C(F)(F)F)CC1)NCc1cc(OCC(F)(F)F)ncc1F 27.66 mV

Query: Kv7.2/7.3 ΔV1/2; subject: O=C(NCC1CCC(F)(F)CC1)N[C@@H](CO)c1ccnc(OCC(F)(F)F)c1 26.46 mV
